Hello, the source for this data is ChEMBL document CHEMBL4619736, in case you need it.

What MIC was measured for each of the following?
- Tested on: Escherichia coli
- EXPERIMENTAL PROTOCOL: Antibacterial activity against Escherichia coli IHMA 940398 by CLSI based broth microdilution method
- Assay type: functional
Bridge positions count the residues as written; N and C are the ends. Square brackets hold non-standard residues; d marks the D form. Peptide text beside a SMILES is read from it. * marks the point of attachment. X1 = CC[C@H](C)CCCCC(=O)*; Dab = NCC[C@H](N)C(=O)O
Your answer is read as µg/mL, so omit the unit and give the number.

Reported MIC of CC[C@H](C)CCCCC(=O)N[C@@H](CCN)C(=O)N[C@H](C(=O)N[C@@H](CCN)C(=O)N[C@H]1CCNC(=O)[C@H]([C@@H](C)O)NC(=O)[C@H](CCN)NC(=O)[C@H](CCN)NC(=O)[C@H](CC(C)C)NC(=O)[C@@H](Cc2ccc(-c3ccccc3)cc2)NC(=O)[C@H](CCN)NC1=O)[C@@H](C)O : 8

Reported MIC of CC[C@H](C)CCCCC(=O)N[C@@H](CCN)C(=O)N[C@H](C(=O)N[C@@H](CCN)C(=O)N[C@H]1CCNC(=O)[C@H]([C@@H](C)O)NC(=O)[C@H](CCN)NC(=O)[C@H](CCN)NC(=O)[C@H](CC(C)C)NC(=O)[C@@H](Cc2ccccc2)NC(=O)[C@H](CCN)NC1=O)[C@@H](C)O (X1-[Dab]T[Dab][Dab][Dab][dF]L[Dab][Dab]T; lactam 4-C) : 16

Reported MIC of CC[C@H](C)CCCCC(=O)N[C@@H](CCN)C(=O)N[C@H](C(=O)N[C@@H](CCN)C(=O)N[C@H]1CCNC(=O)[C@H]([C@@H](C)O)NC(=O)[C@H](CCN)NC(=O)[C@H](CCN)NC(=O)[C@H](CC(C)C)NC(=O)[C@@H](CC2CCCCC2)NC(=O)[C@H](CCN)NC1=O)[C@@H](C)O : 8

====

- System: Klebsiella pneumoniae
- EXPERIMENTAL PROTOCOL: Antibacterial activity against Klebsiella pneumoniae IHMA 652780 by CLSI based broth microdilution method
- Type: functional
Bridge positions count the residues as written; N and C are the ends. Square brackets hold non-standard residues; d marks the D form. Peptide text beside a SMILES is read from it. * marks the point of attachment. X1 = CC[C@H](C)CCCCC(=O)*; Dab = NCC[C@H](N)C(=O)O
What log10(MIC) was measured for each of the following?
// units: µg/mL (pre-log); metric: MIC; scale: log10

Reported log10(MIC) of CC(C)C[C@@H]1CNC[C@@H](C(=O)N[C@H](C(=O)N[C@@H](CN)C(=O)N[C@H]2CCNC(=O)[C@H]([C@@H](C)O)NC(=O)[C@H](CCN)NC(=O)[C@H](CCN)NC(=O)[C@H](CC(C)C)NC(=O)[C@@H](Cc3ccc(-c4ccccc4)cc3)NC(=O)[C@H](CCN)NC2=O)[C@@H](C)O)C1 : -0.30

Reported log10(MIC) of CC(C)C[C@@H]1NC(=O)[C@@H](Cc2ccccc2)NC(=O)[C@H](CCN)NC(=O)[C@@H](NC(=O)[C@H](CN)NC(=O)[C@@H](NC(=O)[C@@H]2CNCCN2CC(C)C)[C@@H](C)O)CCNC(=O)[C@H]([C@@H](C)O)NC(=O)[C@H](CCN)NC(=O)[C@H](CCN)NC1=O : 1.20

Reported log10(MIC) of CC[C@H](C)CCCCC(=O)N[C@@H](CCN)C(=O)N[C@H](C(=O)N[C@@H](CCN)C(=O)N[C@H]1CCNC(=O)[C@H]([C@@H](C)O)NC(=O)[C@H](CCN)NC(=O)[C@H](CCN)NC(=O)[C@H](CC(C)C)NC(=O)[C@@H](Cc2ccccc2)NC(=O)[C@H](CCN)NC1=O)[C@@H](C)O (X1-[Dab]T[Dab][Dab][Dab][dF]L[Dab][Dab]T; lactam 4-C) : 0.60

Reported log10(MIC) of CC(C)C[C@@H]1NC(=O)[C@@H](CC2CCCCC2)NC(=O)[C@H](CCN)NC(=O)[C@@H](NC(=O)[C@H](CCN)NC(=O)[C@@H](NC(=O)C[C@H](CN)Cc2ccccc2)[C@@H](C)O)CCNC(=O)[C@H]([C@@H](C)O)NC(=O)[C@H](CCN)NC(=O)[C@H](CCN)NC1=O : 0.60

Reported log10(MIC) of CC[C@H](C)CCCCC(=O)N[C@@H](CCN)C(=O)N[C@H](C(=O)N[C@@H](CCN)C(=O)N[C@H]1CCNC(=O)[C@H]([C@@H](C)O)NC(=O)[C@H](CCN)NC(=O)[C@H](CCN)NC(=O)[C@H](CC(C)C)NC(=O)[C@@H](Cc2ccc(Br)cc2)NC(=O)[C@H](CCN)NC1=O)[C@@H](C)O : -0.30

Reported log10(MIC) of CC(C)C[C@@H]1NC(=O)[C@@H](CC2CCCCC2)NC(=O)[C@H](CCN)NC(=O)[C@@H](NC(=O)[C@H](CN)NC(=O)[C@@H](NC(=O)C[C@H](CN)Cc2ccccc2)[C@@H](C)O)CCNC(=O)[C@H]([C@@H](C)O)NC(=O)[C@H](CCN)NC(=O)[C@H](CCN)NC1=O : 0.60

Reported log10(MIC) of CC[C@H](C)CCCCC(=O)N[C@@H](CCN)C(=O)N[C@H](C(=O)N[C@@H](CCN)C(=O)N[C@H]1CCNC(=O)[C@H]([C@@H](C)O)NC(=O)[C@H](CCN)NC(=O)[C@H](CCN)NC(=O)[C@H](CC(C)C)NC(=O)[C@@H](Cc2ccc(-c3ccccc3)cc2)NC(=O)[C@H](CCN)NC1=O)[C@@H](C)O : -0.30

Reported log10(MIC) of CC(C)C[C@@H]1NC(=O)[C@@H](CC2CCCCC2)NC(=O)[C@H](CCN)NC(=O)[C@@H](NC(=O)[C@H](CN)NC(=O)[C@@H](NC(=O)C[C@H](CN)C2CCCCC2)[C@@H](C)O)CCNC(=O)[C@H]([C@@H](C)O)NC(=O)[C@H](CCN)NC(=O)[C@H](CCN)NC1=O : 0.30

Reported log10(MIC) of CC[C@H](C)CCCCC(=O)N[C@@H](CCN)C(=O)N[C@H](C(=O)N[C@@H](CCN)C(=O)N[C@H]1CCNC(=O)[C@H]([C@@H](C)O)NC(=O)[C@H](CCN)NC(=O)[C@H](CCN)NC(=O)[C@H](CC(C)C)NC(=O)[C@@H](CC2CCCCC2)NC(=O)[C@H](CCN)NC1=O)[C@@H](C)O : 0.00

Reported log10(MIC) of CC(C)C[C@@H]1NC(=O)[C@@H](Cc2ccccc2)NC(=O)[C@H](CCN)NC(=O)[C@@H](NC(=O)[C@H](CN)NC(=O)[C@@H](NC(=O)C[C@H](CN)C2CCCCC2)[C@@H](C)O)CCNC(=O)[C@H]([C@@H](C)O)NC(=O)[C@H](CCN)NC(=O)[C@H](CCN)NC1=O : 0.60

Reported log10(MIC) of CC(C)C[C@@H]1NC(=O)[C@@H](Cc2ccc(-c3ccccc3)cc2)NC(=O)[C@H](CCN)NC(=O)[C@@H](NC(=O)[C@H](CN)NC(=O)[C@@H](NC(=O)[C@@H]2CNCCN2CC(C)C)[C@@H](C)O)CCNC(=O)[C@H]([C@@H](C)O)NC(=O)[C@H](CCN)NC(=O)[C@H](CCN)NC1=O : -0.30
